# System name: Receptor-histidine kinase AgrC (Staphylococcus aureus, UniProt O07911)
# Experimental protocol: Inhibition of AIP-stimulated quorum sensing system AgrC activation in Staphylococcus aureus RN10829 harboring P3:blaZ fusion assessed as reduction in beta-lactamse activity preincubated with organism followed by AIP addition measured after 45 mins by nitrocefin hydrolysis assay
pIC50: −log10 of the molar value.
Decide using pIC50: a value greater than or equal to 6 is 1, a smaller one is -1.

The examples below pair each entry with its known result.
>  <Smiles string>
CCCCCCC(=O)N[C@@H]1CNC(=O)[C@@H](CC(C)C)NC(=O)[C@@H](C)NC(=O)[C@@H](CCC(C)C)NC(=O)[C@@H](Cc2ccccc2)NC1=O

>  <Group>
1

$$$$
>  <Smiles string>
CCCCCCC(=O)N[C@@H]1CNC(=O)[C@@H](CC(C)C)NC(=O)[C@@H](C)NC(=O)[C@@H](CC(C)C)NC(=O)[C@@H](Cc2ccccc2)NC1=O

>  <Group>
1

$$$$
>  <Smiles string>
CCCCCCC(=O)N[C@H]1CNC(=O)[C@H](CC(C)C)NC(=O)[C@H](C)NC(=O)[C@H](CC(C)C)NC(=O)[C@H](Cc2ccccc2)NC1=O

>  <Group>
-1

$$$$
>  <Smiles string>
CCCCCCCC(=O)N[C@@H]1CNC(=O)[C@@H](CC(C)C)NC(=O)[C@@H](C)NC(=O)[C@@H](CC(C)C)NC(=O)[C@@H](Cc2ccccc2)NC1=O

>  <Group>
1

$$$$

Challenge: Decide: is the reported value of pIC50 for CCCCCCC(=O)N[C@@H]1CNC(=O)[C@@H](C)NC(=O)[C@@H](C)NC(=O)[C@@H](CC(C)C)NC(=O)[C@@H](Cc2ccccc2)NC1=O equal to or greater than 6?
Response given: -1

* * *

# System name: Receptor-histidine kinase AgrC (Staphylococcus aureus) (UniProt O07911)
# Sequence (whole entry): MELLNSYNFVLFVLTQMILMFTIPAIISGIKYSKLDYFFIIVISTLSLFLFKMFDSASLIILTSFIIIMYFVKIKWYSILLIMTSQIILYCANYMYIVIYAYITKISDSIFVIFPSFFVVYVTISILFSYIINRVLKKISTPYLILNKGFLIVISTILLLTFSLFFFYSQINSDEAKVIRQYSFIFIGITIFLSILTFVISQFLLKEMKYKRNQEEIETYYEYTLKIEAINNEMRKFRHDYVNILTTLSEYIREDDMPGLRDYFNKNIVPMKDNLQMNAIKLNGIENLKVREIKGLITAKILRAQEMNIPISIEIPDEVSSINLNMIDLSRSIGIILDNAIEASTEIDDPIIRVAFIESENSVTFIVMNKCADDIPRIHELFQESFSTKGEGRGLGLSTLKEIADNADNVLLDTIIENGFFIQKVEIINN
# Experimental protocol: Inhibition of AIP-stimulated quorum sensing system AgrC activation in Staphylococcus aureus RN10829 harboring P3:blaZ fusion assessed as reduction in beta-lactamse activity at 5 ug/ml preincubated with organism followed by AIP addition measured after 45 mins by nitrocefin hydrolysis assay
Activity calls are given as the source filed them. The calls are words filed in the database; no cut-off is given here. Bridge positions count the residues as written; N and C are the ends. Square brackets hold non-standard residues; d marks the D form. Peptide text beside a SMILES is read from it. * marks the point of attachment. Decanoyl(3,6,9-trioxa) = COCCOCCOCC(=O)*; Heptanoyl = CCCCCCC(=O)*; Dab = NCC[C@H](N)C(=O)O; Dap = NC[C@H](N)C(=O)O
In this exercise, the only acceptable responses are active, inactive

The examples below pair each entry with its known result.
>  <Compound>
CC(=O)N[C@H]1CNC(=O)[C@H](CC(C)C)NC(=O)[C@H](C)NC(=O)[C@H](CC(C)C)NC(=O)[C@H](Cc2ccccc2)NC1=O (Ac-[Dap]FLAL; lactam 1-C)

>  <Group>
inactive

$$$$
>  <Compound>
COCCOCCOCC(=O)N[C@H]1CNC(=O)[C@H](CC(C)C)NC(=O)[C@H](C)NC(=O)[C@H](CC(C)C)NC(=O)[C@H](Cc2ccccc2)NC1=O ({Decanoyl(3,6,9-trioxa)}-[Dap]FLAL; lactam 1-C)

>  <Group>
inactive

$$$$
>  <Compound>
CCCCCCC(=O)N[C@@H]1CNC(=O)[C@@H](CC(C)C)NC(=O)[C@@H](C)NC(=O)[C@@H](C)NC(=O)[C@@H](Cc2ccccc2)NC1=O

>  <Group>
active

$$$$
>  <Compound>
CCCCCCC(=O)N[C@H]1CCNC(=O)[C@H](CC(C)C)NC(=O)[C@H](C)NC(=O)[C@H](CC(C)C)NC(=O)[C@H](Cc2ccccc2)NC1=O (Heptanoyl-[Dab]FLAL; lactam 1-C)

>  <Group>
inactive

$$$$

Challenge: Test call for this compound, please: CCCCCCC(=O)N[C@H]1CNC(=O)[C@H](Cc2ccccc2)NC(=O)[C@H](C)NC(=O)[C@H](CC(C)C)NC(=O)[C@H](CC(C)C)NC1=O
Response given: active
